Data origin, for the record: ChEMBL document CHEMBL1130749

Target: Proteasome
Experiment: Inhibitory constant for the inactivation of the chymotrypsin like activity of proteasome from human red blood corpuscles was determined
Type: subcellular
pKi: −log10 of the molar value. Peptide text beside a SMILES is read from it. * marks the point of attachment. Cbz = O=C(OCc1ccccc1)*
parameter: pKi

{"molecule": "CC(C)C[C@@H](C=O)NC(=O)[C@H](CC(C)C)NC(=O)[C@H](CC(C)C)NC(=O)OCc1ccccc1 [MG-132] (Cbz-Leu-Leu-Leu-aldehyde)", "pKi": 8.40}
{"molecule": "CC(C)[C@H](NC(=O)OCc1ccccc1)C(=O)N[C@@H](Cc1ccccc1)C(=O)C=O", "pKi": 5.69}
{"molecule": "C[C@H](NC(=O)OCc1ccccc1)C(=O)N[C@@H](Cc1ccccc1)C(=O)C=O", "pKi": 5.04}
{"molecule": "CC(C)C[C@H](NC(=O)[C@H](C)NC(=O)OCc1ccccc1)C(=O)C=O", "pKi": 5.41}
{"molecule": "CC(C)C[C@H](NC(=O)[C@H](CC(C)C)NC(=O)[C@@H](CC(C)C)NC(=O)c1ccccc1)C(=O)C=O", "pKi": 8.43}

[I] CC(C)C[C@H](NC(=O)OCc1ccccc1)C(=O)N[C@@H](Cc1ccccc1)C(=O)C=O
[II] CC(C)C[C@H](NC(=O)[C@@H](CC(C)C)NC(=O)OCc1ccccc1)C(=O)N[C@@H](Cc1ccc(O)cc1)C(=O)C=O
**Query** Which is greater in pKi, the first item I or the second item II ? Could you answer with the label of the item you picked?
**Result** II
